Test system: PBMC
Assay: Cytotoxicity against human PBMC after 72 hrs by alamar blue assay
Assay type: cell-based
Known IC50 of a selection of molecules

>  <MOLECULE>
CC(C)=CCC1=C(O)C(=O)c2ccccc2C1=O [LAPACHOL]

>  <IC50 / nM>
2100

$$$$
>  <MOLECULE>
COc1ccc(-c2cn([C@H]3C4=C(OC(C)(C)[C@@H]3Br)c3ccccc3C(=O)C4=O)nn2)cc1

>  <IC50 / nM>
2100

$$$$
>  <MOLECULE>
COc1ccc(NC2C3=C(OC2(C)C)c2ccccc2C(=O)C3=O)c([N+](=O)[O-])c1 (centres undefined)

>  <IC50 / nM>
2100

$$$$
>  <MOLECULE>
CC(C)COC1C2=C(OC1(C)C)c1ccccc1C(=O)C2=O (centres undefined)

>  <IC50 / nM>
2100

$$$$
>  <MOLECULE>
CC1(C)CC2=C(O1)c1ccccc1C(=O)C2=O [NOR-BETA-LAPACHONE]

>  <IC50 / nM>
2100

$$$$
>  <MOLECULE>
CC1(C)CCC2=C(O1)c1ccccc1C(=O)C2=O [LAPACHONE]

>  <IC50 / nM>
2100

$$$$
>  <MOLECULE>
CC1(C)OC2=C(C(=O)C(=O)c3ccccc32)C1Nc1ccc(Br)cc1Br (centres undefined)

>  <IC50 / nM>
2100

$$$$
>  <MOLECULE>
CC1(C)OC2=C(C(=O)C(=O)c3ccccc32)C1OC1CCCCC1 (centres undefined)

>  <IC50 / nM>
2100

$$$$
>  <MOLECULE>
Cc1ccc([N+](=O)[O-])cc1NC1C2=C(OC1(C)C)c1ccccc1C(=O)C2=O (centres undefined)

>  <IC50 / nM>
12000

$$$$
>  <MOLECULE>
CC1(C)OC2=C(C(=O)C(=O)c3ccccc32)[C@H](N=[N+]=[N-])[C@H]1Br

>  <IC50 / nM>
2100

$$$$
>  <MOLECULE>
CC(C)=CC1=C(O)C(=O)c2ccccc2C1=O

>  <IC50 / nM>
2100

$$$$
>  <MOLECULE>
CC(C)=CCC1=C(OC2(CC=C(C)C)C(=O)C(=O)c3ccccc3C2=O)C(=O)c2ccccc2C1=O (centres undefined)

>  <IC50 / nM>
12000

$$$$
>  <MOLECULE>
CC1(C)OC2=C(C(=O)C(=O)c3ccccc32)[C@H](n2cc(-c3ccccc3)nn2)[C@H]1Br

>  <IC50 / nM>
2100

$$$$
>  <MOLECULE>
CC(C)OC1C2=C(OC1(C)C)c1ccccc1C(=O)C2=O (centres undefined)

>  <IC50 / nM>
2100

$$$$
>  <MOLECULE>
CC1(C)OC2=C(C(=O)C(=O)c3ccccc32)[C@H](n2cc(-c3ccc(F)cc3)nn2)[C@H]1Br

>  <IC50 / nM>
2100

$$$$
>  <MOLECULE>
CC1(C)OC2=C(C(=O)c3ccccc3C2=O)[C@@H](N=[N+]=[N-])[C@@H]1Br

>  <IC50 / nM>
2100

$$$$
>  <MOLECULE>
CC1(C)OC2=C(C(=O)C(=O)c3ccccc32)[C@H](n2cc(-c3ccc(Br)cc3)nn2)[C@H]1Br

>  <IC50 / nM>
2100

$$$$
>  <MOLECULE>
Cc1ccc(-c2nc3ccc4c(c3[nH]2)C(=O)c2ccccc2C4=O)cc1

>  <IC50 / nM>
12000

$$$$
>  <MOLECULE>
O=C1c2ccccc2C(=O)c2c1ccc1nc(-c3cccc4ccccc34)[nH]c21

>  <IC50 / nM>
2100

$$$$
>  <MOLECULE>
Cc1cc([N+](=O)[O-])ccc1NC1C2=C(OC1(C)C)c1ccccc1C(=O)C2=O (centres undefined)

>  <IC50 / nM>
2100

$$$$
>  <MOLECULE>
O=C1c2ccccc2C(=O)c2c1ccc1nc(-c3ccccc3)[nH]c21

>  <IC50 / nM>
12000

$$$$
>  <MOLECULE>
CC1(C)OC2=C(C(=O)C(=O)c3ccccc32)C1Nc1ccccc1[N+](=O)[O-] (centres undefined)

>  <IC50 / nM>
2100

$$$$
>  <MOLECULE>
CC1(C)OC2=C(C(=O)C(=O)c3ccccc32)C1Nc1ccc(Cl)c(Cl)c1 (centres undefined)

>  <IC50 / nM>
2100

$$$$
>  <MOLECULE>
O=C1c2ccccc2C(=O)c2c1ccc1nc(-c3ccc(-c4ccccc4)cc3)[nH]c21

>  <IC50 / nM>
12000

$$$$

The measurements presented in this section are drawn from ChEMBL document CHEMBL1158544.
